Just for reference, patent US7582663B2 is where these values come from.

Target: PPARγ (Homo sapiens, UniProt P37231)
Sequence (P37231 238-505 limits assumed): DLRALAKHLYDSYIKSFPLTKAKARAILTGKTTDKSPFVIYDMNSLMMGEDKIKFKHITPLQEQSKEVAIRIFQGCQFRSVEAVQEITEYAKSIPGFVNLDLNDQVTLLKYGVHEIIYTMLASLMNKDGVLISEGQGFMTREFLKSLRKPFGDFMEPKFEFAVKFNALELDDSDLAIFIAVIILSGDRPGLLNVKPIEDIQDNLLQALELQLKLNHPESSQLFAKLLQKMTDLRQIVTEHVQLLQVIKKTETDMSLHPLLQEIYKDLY
Experiment: Crossed-curve PPAR transactivation test (PPARγ)
Details: HeLN cells stably transfected with Gal-hPPARγ and luciferase reporter; Schild regression against reference agonist; n.a. means not active; read-out: PPARγ Kd app
observed.property: Kd (nM)

[[record]]
molecule = "CCCc1nnc(C(Cc2ccc(-c3cccc(CN(C)C(=O)c4ccc5cc(C(=O)OC)ccc5c4)c3)cc2)OCC)o1 (stereo not drawn)"
observed_property = "Kd"
assay_result = 250


(I) CCCc1nnc(C(Cc2ccc(-c3cccc(CN(C)C(=O)c4ccc5cc(OCOCCOC)ccc5c4)c3)cc2)OCC)o1 (stereo not drawn)
(II) CCCc1nnc(C(Cc2ccc(-c3cccc(CN(C)C(=O)c4ccc(Oc5ccccc5)cc4)c3)cc2)OCC)o1 (stereo not drawn)
Q) Smaller Kd value? Options are I and II Write the label of whichever entry you select.
A) I
